- Tested on: 898857-211-R-J1-PDC complex spheroids, growth % test/control
- measurementNotes: Anticancer human tumor 898857-211-R-J1-PDC patient-derived melanoma cell line growth inhibition [RAS]; active means viability on the fitted dose curve at most 10% of control; inactive means the rest
- experimentalContext: second compound 0.3 µM; first compound 0.316 µM
Allowed answers: Y = active, N = inactive

Write down the call the test reported for this molecule. Item: NC1c2ccccc2OC12CCN(c1cnc3c(N4CCCc5ncccc54)n[nH]c3n1)CC2 (stereo not drawn) + CCn1c(-c2cccnc2C(C)OC)c2c3cc(ccc31)N1CCOC(CC(NC(=O)C(C(C)C)N(C)C(=O)C3(F)CCN(C(=O)C#CC(C)(C)N(C)C)CC3)C(=O)N3CCCC(N3)C(=O)OCC(C)(C)C2)C1
N

Write down the call the test reported for this molecule. Item: Cc1nc(N2CCC3(CC2)COC(C)C3N)c(CO)nc1Sc1ccnc(N)c1Cl (stereo not drawn) + CCn1c(-c2cc(N3CCN(C)CC3)cnc2C(C)OC)c2c3cc(ccc31)-c1csc(n1)CC(NC(=O)C1CC1C)C(=O)N1CCCC(N1)C(=O)OCC(C)(C)C2
N

Write down the call the test reported for this molecule. Item: O=C(c1ccc(F)c(F)c1Nc1ccc(I)cc1F)N1CC(O)([C@@H]2CCCCN2)C1 + CCn1c(-c2cc(N3CCN(C)CC3)cnc2C(C)OC)c2c3cc(ccc31)-c1csc(n1)CC(NC(=O)C1CC1C)C(=O)N1CCCC(N1)C(=O)OCC(C)(C)C2
Y

Write down the call the test reported for this molecule. Item: CC(Nc1ccc2c(c1)OCCn1cc(N3C(=O)OCC3C(F)F)nc1-2)C(N)=O (stereo not drawn) + CCn1c(-c2cccnc2C(C)OC)c2c3cc(ccc31)N1CCOC(CC(NC(=O)C(C(C)C)N(C)C(=O)C3(F)CCN(C(=O)C#CC(C)(C)N(C)C)CC3)C(=O)N3CCCC(N3)C(=O)OCC(C)(C)C2)C1
N

Write down the call the test reported for this molecule. Item: CCC(CC)c1cc(NC2CCC(N)C2)n2nccc2n1 (stereo not drawn) + CCn1c(-c2cccnc2C(C)OC)c2c3cc(ccc31)N1CCOC(CC(NC(=O)C(C(C)C)N(C)C(=O)C3(F)CCN(C(=O)C#CC(C)(C)N(C)C)CC3)C(=O)N3CCCC(N3)C(=O)OCC(C)(C)C2)C1
N

Write down the call the test reported for this molecule. Item: C=CC(=O)Nc1cc(Nc2nccc(-c3cn(C)c4ccccc34)n2)c(OC)cc1N(C)CCN(C)C + CCn1c(-c2cccnc2C(C)OC)c2c3cc(ccc31)N1CCOC(CC(NC(=O)C(C(C)C)N(C)C(=O)C3(F)CCN(C(=O)C#CC(C)(C)N(C)C)CC3)C(=O)N3CCCC(N3)C(=O)OCC(C)(C)C2)C1
N

Write down the call the test reported for this molecule. Item: C=CC(=O)N1CCN(c2nc(OCC3CCCN3C)nc3c(F)c(-c4nc(N)cc(C)c4C(F)(F)F)c(Cl)cc23)C(C)C1 (stereo not drawn) + CCn1c(-c2cc(N3CCN(C)CC3)cnc2C(C)OC)c2c3cc(ccc31)-c1csc(n1)CC(NC(=O)C1CC1C)C(=O)N1CCCC(N1)C(=O)OCC(C)(C)C2
N

Write down the call the test reported for this molecule. Item: CC(Nc1ccc2c(c1)OCCn1cc(N3C(=O)OCC3C(F)F)nc1-2)C(N)=O (stereo not drawn) + CCn1c(-c2cc(N3CCN(C)CC3)cnc2C(C)OC)c2c3cc(ccc31)-c1csc(n1)CC(NC(=O)C1CC1C)C(=O)N1CCCC(N1)C(=O)OCC(C)(C)C2
N

====

- Test system: 898857-211-R-J1-PDC complex spheroids, growth % test/control
- measurementNotes: Anticancer human tumor 898857-211-R-J1-PDC cell line growth inhibition [RAS];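 further: spheroids exposed to compound for seven days before readout; 100% = DMSO vehicle control wells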
- experimentalContext: second compound 0.3 µM; first compound 0.0316 µM; stronger effect = lower value
Field: viability, T/C. Provide a value for each of the compounds that follow.
// note: answer is a bare numeric in %

Dear colleague, I am looking for the recorded viability, T/C of the following compound: CC(C)n1nc(-c2ccc3oc(N)nc3c2)c2c(N)ncnc21 + CCn1c(-c2cc(N3CCN(C)CC3)cnc2C(C)OC)c2c3cc(ccc31)-c1csc(n1)CC(NC(=O)C1CC1C)C(=O)N1CCCC(N1)C(=O)OCC(C)(C)C2
40.2

Dear colleague, I am looking for the recorded viability, T/C of the following compound: NC1c2ccccc2OC12CCN(c1cnc3c(N4CCCc5ncccc54)n[nH]c3n1)CC2 (centres undefined) + CCn1c(-c2cc(N3CCN(C)CC3)cnc2C(C)OC)c2c3cc(ccc31)-c1csc(n1)CC(NC(=O)C1CC1C)C(=O)N1CCCC(N1)C(=O)OCC(C)(C)C2
112

Dear colleague, I am looking for the recorded viability, T/C of the following compound: CCN1CCN(Cc2ccc(Nc3ncc(F)c(-c4cc(F)c5nc(C)n(C(C)C)c5c4)n3)nc2)CC1 + CCn1c(-c2cc(N3CCN(C)CC3)cnc2C(C)OC)c2c3cc(ccc31)-c1csc(n1)CC(NC(=O)C1CC1C)C(=O)N1CCCC(N1)C(=O)OCC(C)(C)C2
76

Dear colleague, I am looking for the recorded viability, T/C of the following compound: C[C@@H](NC(=O)c1ncnc(N)c1Cl)c1ncc(C(=O)Nc2cc(C(F)(F)F)c(Cl)cn2)s1 + CCn1c(-c2cc(N3CCN(C)CC3)cnc2C(C)OC)c2c3cc(ccc31)-c1csc(n1)CC(NC(=O)C1CC1C)C(=O)N1CCCC(N1)C(=O)OCC(C)(C)C2
108

====

- Test system: 898857-211-R-J1-PDC complex spheroids, growth % test/control
- measurementNotes: Anticancer human tumor 898857-211-R-J1-PDC cell line growth inhibition [RAS]; active means viability on the fitted dose curve at most 10% of control; inactive means the rest;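 further: spheroids exposed to compound for seven days before readout; 100% = DMSO vehicle control wells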
- experimentalContext: second compound 10 µM; first compound 0.316 µM
- Source text: RAS pathway inhibitors in Combinations in Complex Spheroids A high-throughput screen of multi-cell type tumor spheroids was designed to identify active combinations of RAS pathway inhibitors and targeted small molecules. Complex spheroids include a stromal component modeled by human endothelial cells (HUVEC) and fibroblasts modeled by human mesenchymal stem cells (MSCs). […] Compounds. […] If the clinical Cmax for an agent had not been determined, the highest concentration tested was 10 microM. […]
Allowed answers: active, inactive

Write down the call the test reported for this molecule. Item: CC1(O)CCCC1n1c(=O)c(C(F)F)cc2cnc(NC3CCN(S(C)(=O)=O)CC3)nc21 (stereo not drawn) + C#Cc1c(F)ccc2cc(O)cc(-c3ncc4c(N5CC6CCC(C5)N6)nc(OCC56CCCN5CC(F)C6)nc4c3F)c12
inactive

Write down the call the test reported for this molecule. Item: C=CC(=O)Nc1cc(Nc2nccc(-c3cn(C)c4ccccc34)n2)c(OC)cc1N(C)CCN(C)C + C#Cc1c(F)ccc2cc(O)cc(-c3ncc4c(N5CC6CCC(C5)N6)nc(OCC56CCCN5CC(F)C6)nc4c3F)c12
inactive

Write down the call the test reported for this molecule. Item: CC(=O)OC12COC1CC(O)C1(C)C(=O)C(O)C3=C(C)C(OC(=O)C(O)C(NC(=O)OC(C)(C)C)c4ccccc4)CC(O)(C(OC(=O)c4ccccc4)C21)C3(C)C (stereo not drawn) + C#Cc1c(F)ccc2cc(O)cc(-c3ncc4c(N5CC6CCC(C5)N6)nc(OCC56CCCN5CC(F)C6)nc4c3F)c12
active

Write down the call the test reported for this molecule. Item: C[C@@H](NC(=O)c1ncnc(N)c1Cl)c1ncc(C(=O)Nc2cc(C(F)(F)F)c(Cl)cn2)s1 + C#Cc1c(F)ccc2cc(O)cc(-c3ncc4c(N5CC6CCC(C5)N6)nc(OCC56CCCN5CC(F)C6)nc4c3F)c12
inactive

Write down the call the test reported for this molecule. Item: Nc1ccn(C2OC(CO)C(O)C2(F)F)c(=O)n1 (stereo not drawn) + C#Cc1c(F)ccc2cc(O)cc(-c3ncc4c(N5CC6CCC(C5)N6)nc(OCC56CCCN5CC(F)C6)nc4c3F)c12
active

Write down the call the test reported for this molecule. Item: CC(C)NCC(C(=O)N1CCN(c2ncnc3c2C(C)CC3O)CC1)c1ccc(Cl)cc1 (stereo not drawn) + C#Cc1c(F)ccc2cc(O)cc(-c3ncc4c(N5CC6CCC(C5)N6)nc(OCC56CCCN5CC(F)C6)nc4c3F)c12
inactive

Write down the call the test reported for this molecule. Item: CCN1CCN(Cc2ccc(Nc3ncc(F)c(-c4cc(F)c5nc(C)n(C(C)C)c5c4)n3)nc2)CC1 + C#Cc1c(F)ccc2cc(O)cc(-c3ncc4c(N5CC6CCC(C5)N6)nc(OCC56CCCN5CC(F)C6)nc4c3F)c12
inactive

Write down the call the test reported for this molecule. Item: O=C(c1ccc(F)c(F)c1Nc1ccc(I)cc1F)N1CC(O)([C@@H]2CCCCN2)C1 + C#Cc1c(F)ccc2cc(O)cc(-c3ncc4c(N5CC6CCC(C5)N6)nc(OCC56CCCN5CC(F)C6)nc4c3F)c12
active

====

- Tested on: 898857-211-R-J1-PDC complex spheroids, growth % test/control
- measurementNotes: Anticancer human tumor 898857-211-R-J1-PDC cell line growth inhibition [RAS];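 further: spheroids exposed to compound for seven days before readout; 100% = DMSO vehicle control wells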
- experimentalContext: second compound 0.0949 µM; first compound 0.0316 µM; stronger effect = lower value
- Source text: RAS pathway inhibitors in Combinations in Complex Spheroids A high-throughput screen of multi-cell type tumor spheroids was designed to identify active combinations of RAS pathway inhibitors and targeted small molecules. Complex spheroids include a stromal component modeled by human endothelial cells (HUVEC) and fibroblasts modeled by human mesenchymal stem cells (MSCs). […] Compounds. […] If the clinical Cmax for an agent had not been determined, the highest concentration tested was 10 microM. […]
measurementKind: viability, T/C (%)
// note: answer is a bare numeric in %

Dear colleague, I am looking for the recorded viability, T/C of the following compound: O=C(c1ccc(F)c(F)c1Nc1ccc(I)cc1F)N1CC(O)([C@@H]2CCCCN2)C1 + CCn1c(-c2cc(N3CCN(C)CC3)cnc2C(C)OC)c2c3cc(ccc31)-c1csc(n1)CC(NC(=O)C1CC1C)C(=O)N1CCCC(N1)C(=O)OCC(C)(C)C2
14.7

Dear colleague, I am looking for the recorded viability, T/C of the following compound: Nc1ccn(C2OC(CO)C(O)C2(F)F)c(=O)n1 (configuration not stated) + CCn1c(-c2cccnc2C(C)OC)c2c3cc(ccc31)N1CCOC(CC(NC(=O)C(C(C)C)N(C)C(=O)C3(F)CCN(C(=O)C#CC(C)(C)N(C)C)CC3)C(=O)N3CCCC(N3)C(=O)OCC(C)(C)C2)C1
4.15
